Molecular target: T1, human transferrin receptor (recombinant, for surface plasmon resonance) (human, UniProt P02786 89-760)
T1 construct: also called huTfR; human transferrin receptor-biotinylated
T1 sequence (P02786 89-760 limits assumed): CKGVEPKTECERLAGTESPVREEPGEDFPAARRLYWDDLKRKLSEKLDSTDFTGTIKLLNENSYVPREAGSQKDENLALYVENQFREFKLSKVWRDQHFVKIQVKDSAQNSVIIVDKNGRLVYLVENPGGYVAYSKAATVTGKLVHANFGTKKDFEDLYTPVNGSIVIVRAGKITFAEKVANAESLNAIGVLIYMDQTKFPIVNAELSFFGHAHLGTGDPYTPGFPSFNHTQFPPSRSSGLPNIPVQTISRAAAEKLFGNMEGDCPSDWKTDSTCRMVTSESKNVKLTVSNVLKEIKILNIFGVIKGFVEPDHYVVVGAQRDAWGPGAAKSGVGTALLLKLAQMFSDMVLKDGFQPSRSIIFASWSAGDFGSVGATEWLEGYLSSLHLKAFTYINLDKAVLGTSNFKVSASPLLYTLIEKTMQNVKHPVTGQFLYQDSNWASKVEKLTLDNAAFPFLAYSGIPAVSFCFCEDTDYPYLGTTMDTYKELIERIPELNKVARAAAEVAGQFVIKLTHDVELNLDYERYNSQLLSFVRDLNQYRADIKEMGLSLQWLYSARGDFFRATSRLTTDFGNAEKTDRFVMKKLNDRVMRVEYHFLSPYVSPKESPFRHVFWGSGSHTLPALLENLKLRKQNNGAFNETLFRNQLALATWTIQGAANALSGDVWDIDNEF
Assay: SPR 25C
MEASURED_QUANTITY: koff (s⁻¹)
Write the number in s⁻¹ without appending the unit.

Supply reported koff belonging to this binder: 2/99 VH18/VL12 (antibody, V domains shown) VH: QVQLQESGPGLVKPSQTLSLTCTVSGFSLSSYAMSWIRQHPGKGLEWIGYIWSGGSTDYAPSLKSRVTISVDTSKNQFSLKLSSVTAADTAVYYCARRYGTSYPDYGDANGFDPWGQGTLVTVSS VL: DIQMTQSPSSLSASVGDRVTITCRASQSISSYLAWYQQKPGKAPKLLIYRASTLASGVPSRFSGSRSGTDFTLTISSLQPEDFATYYCQQHYSSSNVDNTFGGGTKVEIK 0.001

Supply reported koff belonging to this binder: 2/99 VH8/VL7 (antibody, V domains shown) VH: QQLVETGGGLIQPGGSLRLSCAASGFSLSSYAMSWVRQAPGKGLEWIGYIWSGGSTDYASWAKGRFTISKTSTTLYLQMNSLRAEDTAVYYCARRYGTSYPDYGDANGFDPWGQGTLVTVSS VL: AIQLTQSPSSLSASVGDRVTITCRASQSISSYLAWYQQKPGKAPKLLIYRASTLASGVPSRFSGSGSGTDFTLTISSLQPEDFATYYCQQSYSSSNVDNTFGGGTKVEIK 0.00231

Supply reported koff belonging to this binder: 2/99 VH13/VL2 (antibody, V domains shown) VH: QVQLQESGPGLVKPSETLSLTCTVSGFSLSSYAMSWIRQPPGKGLEWIGYIWSGGSTDYNPSLKSRVTISVDTSKNQVSLKLSSVTAADTAVYYCARRYGTSYPDYGDANGFDPWGQGTLVTVSS VL: DIQMTQSPSSLSASVGDRVTITCRASQSISSYLNWYQQKPGKAPKLLIYRASTLASGVPSRFSGSGSGTDFTLTISSLQPEDFATYYCQQSYSSSNVDNTFGGGTKVEIK 0.00246
